# assay.notes: Half life in Sprague-Dawley rat at 2 mg/kg, po or 1 mg/kg, iv administered as cassette dose measured after 24 hrs
# Format: ADME, organism-based
# conditions: in vivo
quantity: half-life
Respond with the figure and its unit, in that order.

CCN1C(=O)N(c2c(F)c(OC)cc(OC)c2F)Cc2cnc3c(c21)CC(=O)N3; 1.1 h

Request: Fill blank: measured half-life of the molecule COc1cc(OC)c(F)c(N2Cc3cnc4[nH]ccc4c3N(CCN3CCN(C)CC3)C2=O)c1F is ____.
Result: 4.6 h

Request: Can you check COc1cc(OC)c(F)c(N2Cc3cnc4[nH]ccc4c3N(CCO)C2=O)c1F next?
Result: 1.3 h

Request: Can you check COc1cc(OC)c(F)c(N2Cc3cnc4[nH]ccc4c3N(C3CCN(C)CC3)C2=O)c1F next?
Result: 9.2 h

Request: Can you check COc1cc(OC)c(F)c(N2Cc3cnc4[nH]c(CN5CCOCC5)cc4c3N(C)C2=O)c1F next?
Result: 1.4 h

Request: Can you check COc1cc(OC)c(F)c(N2Cc3cnc4[nH]ccc4c3N(C3CC3)C2=O)c1F next?
Result: 0.9 h

Request: Can you check COc1cc(OC)c(F)c(N2Cc3cnc4[nH]c(C5CCN(C)CC5)cc4c3N(C)C2=O)c1F next?
Result: 0.2 h

Request: Can you check CCN1CCN(CCc2cc3c4c(cnc3[nH]2)CN(c2c(F)c(OC)cc(OC)c2F)C(=O)N4C)CC1 next?
Result: 3.1 h

###

# assay.notes: Solubility of the compound in FaSSIF by HPLC analysis
# Type: physicochemical
Measured solubility, listed per entry for reference.
Respond with the figure and its unit, in that order.

Request: Fill blank: measured solubility of the compound COc1cc(OC)c(F)c(N2Cc3cnc4[nH]ccc4c3N([C@@H]3CCC[C@H]3O)C2=O)c1F is ____.
Result: 41 µg/mL

Request: Can you check COc1cc(OC)c(F)c(N2Cc3cnc4[nH]c(C5CCN(C)CC5)cc4c3N(C)C2=O)c1F next?
Result: 44 µg/mL

Request: Can you check CCN1CCN(CCCc2cc3c4c(cnc3[nH]2)CN(c2c(F)c(OC)cc(OC)c2F)C(=O)N4C)CC1 next?
Result: 472 µg/mL

Request: Can you check COc1cc(OC)c(F)c(N2Cc3cnc4[nH]ccc4c3N(CCO)C2=O)c1F next?
Result: 4.4 µg/mL

Request: Can you check COc1cc(OC)c(F)c(N2Cc3cnc4c(c3N(C)C2=O)CC(=O)N4)c1F next?
Result: 10 µg/mL

###

# target.entity: CYP3A4 (Homo sapiens, UniProt P08684)
# Sequence (P08684 whole entry): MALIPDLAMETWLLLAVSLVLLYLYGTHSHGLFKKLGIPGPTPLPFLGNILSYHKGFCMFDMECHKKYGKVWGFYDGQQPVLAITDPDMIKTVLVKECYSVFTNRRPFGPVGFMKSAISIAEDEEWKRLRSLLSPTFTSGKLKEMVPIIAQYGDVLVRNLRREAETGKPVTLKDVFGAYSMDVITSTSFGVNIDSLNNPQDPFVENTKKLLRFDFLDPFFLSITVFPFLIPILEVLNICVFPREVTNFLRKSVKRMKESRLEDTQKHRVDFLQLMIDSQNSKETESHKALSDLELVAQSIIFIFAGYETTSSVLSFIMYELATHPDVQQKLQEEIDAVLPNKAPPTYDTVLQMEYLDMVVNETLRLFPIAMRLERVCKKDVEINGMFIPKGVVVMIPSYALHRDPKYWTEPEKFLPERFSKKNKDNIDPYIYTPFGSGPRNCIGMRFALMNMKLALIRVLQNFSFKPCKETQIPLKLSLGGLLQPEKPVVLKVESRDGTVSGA
# assay.notes: Time dependent inhibition of CYP3A4 in human liver microsomes at 10 uM using midazolam as substrate substrate preincubated for 30 mins in presence of NADPH followed by substrate addition and measured after 8 mins relative to control
# Assay type: ADME
# conditions: probe midazolam, time 38 min, read-out: TDI
Measured inhibition at 8 min, 10 µM, listed per entry for reference.
Respond with the figure and its unit, in that order.

CCN1CCC(Cc2cc3c4c(cnc3[nH]2)CN(c2c(F)c(OC)cc(OC)c2F)C(=O)N4C)CC1; 22%
CCN1CCN(Cc2cc3c4c(cnc3[nH]2)CN(c2c(F)c(OC)cc(OC)c2F)C(=O)N4C)CC1; 14%

Attention now turns to another entry.
Request: Fill blank: measured inhibition at 8 min, 10 µM of the molecule COc1cc(OC)c(F)c(N2Cc3cnc4[nH]c(CN5CCOCC5)cc4c3N(C)C2=O)c1F is ____.
Result: 4%

###

# target.entity: UniProt P21802
# Sequence (P21802 whole entry): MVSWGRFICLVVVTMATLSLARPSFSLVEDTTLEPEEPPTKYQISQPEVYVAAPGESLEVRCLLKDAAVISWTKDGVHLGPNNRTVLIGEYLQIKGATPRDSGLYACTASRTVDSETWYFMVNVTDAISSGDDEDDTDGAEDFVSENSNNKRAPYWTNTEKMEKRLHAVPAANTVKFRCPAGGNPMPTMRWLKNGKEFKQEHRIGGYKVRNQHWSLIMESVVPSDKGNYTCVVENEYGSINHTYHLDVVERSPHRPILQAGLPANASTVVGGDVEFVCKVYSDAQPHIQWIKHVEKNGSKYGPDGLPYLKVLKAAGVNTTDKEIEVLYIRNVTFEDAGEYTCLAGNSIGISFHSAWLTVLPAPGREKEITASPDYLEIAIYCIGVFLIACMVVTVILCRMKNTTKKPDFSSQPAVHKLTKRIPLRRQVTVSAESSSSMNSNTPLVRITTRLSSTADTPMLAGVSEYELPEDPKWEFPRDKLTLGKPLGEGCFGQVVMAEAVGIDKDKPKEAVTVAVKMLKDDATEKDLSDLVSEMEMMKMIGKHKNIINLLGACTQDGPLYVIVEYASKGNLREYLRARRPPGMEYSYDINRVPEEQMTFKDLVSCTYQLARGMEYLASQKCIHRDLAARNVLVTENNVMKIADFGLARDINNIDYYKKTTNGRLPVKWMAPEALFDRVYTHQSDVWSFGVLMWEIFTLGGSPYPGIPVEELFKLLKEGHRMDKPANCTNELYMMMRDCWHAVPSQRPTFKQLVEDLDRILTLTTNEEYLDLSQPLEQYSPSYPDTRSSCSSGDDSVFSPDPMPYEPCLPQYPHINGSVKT
quantity: pIC50
pIC50 is a log-scale quantity: -log10 of the concentration expressed in molar.

Request: Fill blank: measured pIC50 of the molecule COc1cc(OC)cc(N2Cc3cnc4[nH]ccc4c3N(C)C2=O)c1 is ____.
Result: 8.36

###

# target.entity: Cytochrome P450 2D6 (Homo sapiens)
# Sequence (P10635 whole entry): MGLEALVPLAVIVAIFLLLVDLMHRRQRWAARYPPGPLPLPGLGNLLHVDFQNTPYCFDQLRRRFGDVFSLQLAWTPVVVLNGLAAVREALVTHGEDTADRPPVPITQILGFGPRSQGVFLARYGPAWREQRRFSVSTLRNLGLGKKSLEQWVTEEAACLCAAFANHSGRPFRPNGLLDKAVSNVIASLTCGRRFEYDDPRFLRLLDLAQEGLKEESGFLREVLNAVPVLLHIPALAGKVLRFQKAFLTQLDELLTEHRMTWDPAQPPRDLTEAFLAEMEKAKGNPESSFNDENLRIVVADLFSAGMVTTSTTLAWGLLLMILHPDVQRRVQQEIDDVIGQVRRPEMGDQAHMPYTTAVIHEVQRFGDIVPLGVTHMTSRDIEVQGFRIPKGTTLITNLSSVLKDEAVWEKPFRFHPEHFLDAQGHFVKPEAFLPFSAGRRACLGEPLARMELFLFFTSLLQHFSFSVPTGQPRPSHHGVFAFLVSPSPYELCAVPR
quantity: IC50

Request: Fill blank: measured IC50 of the compound CCN1C(=O)N(c2c(F)c(OC)cc(OC)c2F)Cc2cnc3c(c21)CC(=O)N3 is ____.
Result: > 25 µM

###

# target.entity: Vascular endothelial growth factor receptor 2 (Homo sapiens, UniProt P35968)
# Sequence (P35968 whole entry): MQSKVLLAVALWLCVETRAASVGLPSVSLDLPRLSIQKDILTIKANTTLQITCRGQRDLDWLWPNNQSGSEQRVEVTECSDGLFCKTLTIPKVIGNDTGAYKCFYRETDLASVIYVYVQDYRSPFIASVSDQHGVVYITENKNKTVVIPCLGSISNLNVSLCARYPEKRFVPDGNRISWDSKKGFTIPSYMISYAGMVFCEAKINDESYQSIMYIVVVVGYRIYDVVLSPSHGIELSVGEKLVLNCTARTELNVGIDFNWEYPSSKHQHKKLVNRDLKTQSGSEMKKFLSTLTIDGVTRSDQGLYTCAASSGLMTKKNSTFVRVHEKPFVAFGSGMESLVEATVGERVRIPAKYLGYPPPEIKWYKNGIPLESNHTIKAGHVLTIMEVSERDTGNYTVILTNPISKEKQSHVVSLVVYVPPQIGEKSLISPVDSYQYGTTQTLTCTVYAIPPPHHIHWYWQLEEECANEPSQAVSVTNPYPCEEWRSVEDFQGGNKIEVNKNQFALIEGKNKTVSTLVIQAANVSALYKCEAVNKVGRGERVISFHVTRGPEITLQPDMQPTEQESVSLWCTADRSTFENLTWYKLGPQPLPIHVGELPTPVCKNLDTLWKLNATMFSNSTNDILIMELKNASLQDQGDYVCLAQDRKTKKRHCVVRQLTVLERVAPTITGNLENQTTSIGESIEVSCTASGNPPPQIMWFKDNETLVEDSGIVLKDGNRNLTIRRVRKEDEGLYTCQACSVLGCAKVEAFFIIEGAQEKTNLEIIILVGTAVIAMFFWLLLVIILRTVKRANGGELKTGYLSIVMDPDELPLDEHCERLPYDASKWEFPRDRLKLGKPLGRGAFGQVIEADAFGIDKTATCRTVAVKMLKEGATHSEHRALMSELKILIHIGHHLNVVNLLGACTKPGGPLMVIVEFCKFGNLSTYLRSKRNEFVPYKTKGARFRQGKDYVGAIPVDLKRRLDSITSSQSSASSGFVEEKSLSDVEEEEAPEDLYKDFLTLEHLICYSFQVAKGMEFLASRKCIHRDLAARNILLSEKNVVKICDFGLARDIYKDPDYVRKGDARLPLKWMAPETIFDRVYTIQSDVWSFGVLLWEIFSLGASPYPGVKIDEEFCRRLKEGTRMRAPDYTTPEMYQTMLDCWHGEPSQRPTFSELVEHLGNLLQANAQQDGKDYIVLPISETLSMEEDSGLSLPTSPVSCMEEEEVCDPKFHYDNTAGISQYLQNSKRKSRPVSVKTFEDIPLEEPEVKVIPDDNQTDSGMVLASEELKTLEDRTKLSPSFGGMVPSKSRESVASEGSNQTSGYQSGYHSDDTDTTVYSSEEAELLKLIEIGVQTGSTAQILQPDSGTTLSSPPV
# assay.notes: Inhibition of human recombinant N-terminal His6-tagged VEGFR2 expressed in baculovirus infected Sf21insect cells using biotin-labeled EQEDEPEGDYFEWLE peptide as substrate incubated for 20 mins in presence of ATP by plate reader assay
# Set-up: species or system Sf21
quantity: IC50 (nM)
API: value field is a number in nM; no unit string.

Look over these answered cases.
COc1cc(OC)c(Cl)c(N2Cc3cnc4[nH]ccc4c3N(C)C2=O)c1; 131
COc1ccc2nc(N3CCC(C(CC#N)n4cc(-c5ncnc6[nH]ccc56)cn4)CC3)sc2c1 (centres undefined); 2060
COc1cc(OC)cc(N2Cc3cnc4[nH]ccc4c3N(C)C2=O)c1; 452
COc1cc(OC)c(F)c(N2Cc3cnc4[nH]ccc4c3N(C)C2=O)c1F; 24
COc1cc(OC)c(Cl)c(N2Cc3cnc4[nH]ccc4c3N(C)C2=O)c1F; 40
COc1cc(OC)c(F)c(N2Cc3cnc4[nH]ccc4c3N(C)C2=O)c1; 92
COc1cc(CCc2cnc3[nH]ccc3c2)cc(OC)c1; 1680

Attention now turns to another entry.
Request: Fill blank: measured IC50 of the compound COc1cc(OC)c(Cl)c(N2Cc3cnc4[nH]ccc4c3N(C)C2=O)c1Cl is ____.
Result: 162

###

# assay.notes: Volume of distribution at steady state in Sprague-Dawley rat at 2 mg/kg, po or 1 mg/kg, iv administered as cassette dose measured after 24 hrs
# Format: ADME, organism-based
# conditions: in vivo, read-out: Vdss
Param label: returns Fulfilled when Vd < 1 L/kg, returns Not fulfilled otherwise, including exact equality.

COc1cc(OC)c(F)c(N2Cc3cnc4[nH]ccc4c3N(C3CCN(C)CC3)C2=O)c1F; Fulfilled
CCN1CCN(Cc2cc3c4c(cnc3[nH]2)CN(c2c(F)c(OC)cc(OC)c2F)C(=O)N4C)CC1; Not fulfilled
CCN1CCN(CCCc2cc3c4c(cnc3[nH]2)CN(c2c(F)c(OC)cc(OC)c2F)C(=O)N4C)CC1; Fulfilled
CCN1C(=O)N(c2c(F)c(OC)cc(OC)c2F)Cc2cnc3c(c21)CC(=O)N3; Fulfilled
COc1cc(OC)c(F)c(N2Cc3cnc4[nH]ccc4c3N([C@@H]3CCC[C@H]3O)C2=O)c1F; Fulfilled

Then there is this molecule:
Request: # strict comparison: is reported Vd < 1 L/kg? input = COc1cc(OC)c(F)c(N2Cc3cnc4[nH]c(CN5CCOCC5)cc4c3N(C)C2=O)c1F
Result: Not fulfilled

###

# assay.notes: Clearance in Sprague-Dawley rat at 2 mg/kg, po or 1 mg/kg, iv administered as cassette dose measured after 24 hrs relative to hepatic blood flow
# Type: ADME, organism-based
# conditions: in vivo
Param label: returns criterion met when CL < 30%, returns criterion not met otherwise, including exact equality.

Solved cases (3 shown):
COc1cc(OC)c(F)c(N2Cc3cnc4[nH]ccc4c3N([C@@H]3CCC[C@H]3O)C2=O)c1F; criterion not met
COc1cc(OC)c(F)c(N2Cc3cnc4[nH]c(CN5CCOCC5)cc4c3N(C)C2=O)c1F; criterion not met
CCN1CCN(CCCc2cc3c4c(cnc3[nH]2)CN(c2c(F)c(OC)cc(OC)c2F)C(=O)N4C)CC1; criterion not met

Request: # strict comparison: is reported CL < 30%? input = CCN1C(=O)N(c2c(F)c(OC)cc(OC)c2F)Cc2cnc3c(c21)CC(=O)N3
Result: criterion met

Request: Can you check COc1cc(OC)c(F)c(N2Cc3cnc4[nH]ccc4c3N(CCO)C2=O)c1F next?
Result: criterion not met

###

# target.entity: CYP2B6 (Homo sapiens, UniProt P20813)
# Sequence (P20813 whole entry): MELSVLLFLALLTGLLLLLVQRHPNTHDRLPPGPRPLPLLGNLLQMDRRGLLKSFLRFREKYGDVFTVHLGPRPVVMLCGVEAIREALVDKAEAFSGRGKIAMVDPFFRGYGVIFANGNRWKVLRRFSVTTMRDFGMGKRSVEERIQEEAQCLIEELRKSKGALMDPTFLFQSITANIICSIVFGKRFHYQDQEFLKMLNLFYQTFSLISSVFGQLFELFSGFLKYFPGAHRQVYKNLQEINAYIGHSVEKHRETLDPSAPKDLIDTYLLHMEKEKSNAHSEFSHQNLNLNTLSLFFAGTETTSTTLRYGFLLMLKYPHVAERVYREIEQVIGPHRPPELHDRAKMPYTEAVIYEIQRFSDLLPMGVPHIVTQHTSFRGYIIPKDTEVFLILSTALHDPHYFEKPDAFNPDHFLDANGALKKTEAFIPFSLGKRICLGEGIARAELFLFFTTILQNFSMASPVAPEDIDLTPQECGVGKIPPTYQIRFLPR
# assay.notes: Inhibition of CYP2B6 in human liver microsomes using bupropion as substrate substrate in presence of NADPH by LC-MS/MS analysis
# Format: ADME
# conditions: probe bupropion
pIC50: −log10 of the molar value.
quantity: pIC50

Request: Could you share what pIC50 was measured for CCN1C(=O)N(c2c(F)c(OC)cc(OC)c2F)Cc2cnc3[nH]c(CN4CCOCC4)cc3c21 [PEMIGATINIB] , tested on CYP2B6 (Homo sapiens, UniProt P20813)?
Result: < 4.60

Reference source: ChEMBL document CHEMBL4808209
